Measured values drawn from patent US8481732B2 for this set.

- assayedTarget: histamine H4 receptor (Homo sapiens)
- assayOverview: H4 Membrane Binding Assay (3H-Histamine displacement)
- cond: membranes of recombinant HEK293SFM cells, 10 nM 3H-Histamine, 1.5 hr at room temperature
Recorded log10(IC50) values for a group of molecules are listed next.
Base-10 log of IC50, unit µM.

| molecule | log10(IC50) |
| --- | --- |
| CN1CCN(c2nc(N)nc3cc(C(=O)NC(Cc4ccc5c(c4)OC(F)(F)O5)C(=O)N(C)C)ccc23)CC1 (single isomer, unassigned) [Example 145A] | -0.28 |
| CN1CCN(c2nc(N)nc3cc(C(=O)N[C@@H](Cc4ccc(-c5cccc(C#N)c5)cc4)C(=O)N(C)C)ccc23)CC1 | -1.85 |
| CN1CCN(c2cc(-c3ccc4c(c3)CN(C(=O)OC3CCN(C(=O)OC5CCCC5)CC3)CC4)nc(N)n2)CC1 | -1.48 |
| CCO[C@H]1CCCC[C@H]1NC(=O)N1CCc2ccc(-c3cc(N4CCN(C)CC4)nc(N)n3)cc2C1 (relative stereo) | -1.24 |
| CN1CCN(c2nc(N)nc3cc(C(=O)NC(Cc4cccc(OCc5cccc(C#N)c5)c4)C(=O)N(C)C)ccc23)CC1 (stereo not shown) | -1.74 |
| Cc1ccc(CNC(=O)c2ccc3c(N4CCN(C)CC4)nc(N)nc3c2)cc1Cl | -0.90 |

--- query ---
GET /values?readout=log10(IC50)&item= CN1CCN(c2cc(-c3ccc4c(c3)CN(C(=O)CC3CCN(C(=O)C5CC5)CC3)CC4)nc(N)n2)CC1
-0.38

----------
Recorded pIC50 values for a group of molecules are listed next.
- assayedTarget: histamine H4 receptor (Homo sapiens, UniProt Q9H3N8)
- Sequence (Q9H3N8 whole entry): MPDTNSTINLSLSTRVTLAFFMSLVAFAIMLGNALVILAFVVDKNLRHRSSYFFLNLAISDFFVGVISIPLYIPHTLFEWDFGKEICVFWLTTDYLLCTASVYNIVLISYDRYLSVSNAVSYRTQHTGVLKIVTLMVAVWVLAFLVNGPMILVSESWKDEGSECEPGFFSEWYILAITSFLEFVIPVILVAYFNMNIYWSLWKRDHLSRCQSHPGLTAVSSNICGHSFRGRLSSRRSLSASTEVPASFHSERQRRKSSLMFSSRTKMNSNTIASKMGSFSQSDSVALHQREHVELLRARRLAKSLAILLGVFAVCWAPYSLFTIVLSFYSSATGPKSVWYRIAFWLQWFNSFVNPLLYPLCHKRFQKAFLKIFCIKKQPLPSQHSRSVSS
- assayOverview: H4 Membrane Binding Assay (3H-Histamine displacement)
- cond: membranes of recombinant HEK293SFM cells, 10 nM 3H-Histamine, 1.5 hr at room temperature
Scale note: pIC50 = -log10(concentration in M).

Guide cases for pIC50, answers given:
| molecule | reported |
| --- | --- |
| CCOC(=O)c1sc(Oc2cccc(CNC(=O)c3ccc4c(N5CCN(C)CC5)nc(N)nc4c3)c2)nc1C | 8.08 |
| CC(Oc1cccc(CC(NC(=O)c2ccc3c(N4CCN(C)CC4)nc(N)nc3c2)C(=O)N(C)C)c1)c1cccc(C(F)(F)F)c1 (centres unmarked) | 7.29 |
| CN1CCN(c2cc(-c3ccc4c(c3)CN(C(=O)CCc3ccccc3)CC4)nc(N)n2)CC1 | 7.00 |
| CC(NC(=O)c1ccc2c(N3CCN(C)CC3)nc(N)nc2c1)c1ccc(Oc2ccccc2)cc1 (centres unmarked) | 6.80 |
| CN1CCN(c2cc(-c3ccc4c(c3)CN(c3ccc(C#N)c(F)c3)CC4)nc(N)n2)CC1 | 7.41 |

GET /values?readout=pIC50&item= CN1CCN(c2cc(-c3cc4c(cc3F)CCN(C(=O)NC3CCCCC3)C4)nc(N)n2)CC1
7.11

GET /values?readout=pIC50&item= CC(C)OC(=O)N1CCC(CC(=O)N2CCc3ccc(-c4cc(N5CCN(C)CC5)nc(N)n4)cc3C2)CC1
7.18

GET /values?readout=pIC50&item= COC(=O)c1cccc(COc2cccc(C(C)NC(=O)c3ccc4c(N5CCN(C)CC5)nc(N)nc4c3)c2)c1 (centres unmarked)
8.15
